Reported IC50 values for the following compounds.
# TESTED ON: KPC-2 (Klebsiella pneumoniae, UniProt Q9F663)
# Sequence (Q9F663 25-293, looked up): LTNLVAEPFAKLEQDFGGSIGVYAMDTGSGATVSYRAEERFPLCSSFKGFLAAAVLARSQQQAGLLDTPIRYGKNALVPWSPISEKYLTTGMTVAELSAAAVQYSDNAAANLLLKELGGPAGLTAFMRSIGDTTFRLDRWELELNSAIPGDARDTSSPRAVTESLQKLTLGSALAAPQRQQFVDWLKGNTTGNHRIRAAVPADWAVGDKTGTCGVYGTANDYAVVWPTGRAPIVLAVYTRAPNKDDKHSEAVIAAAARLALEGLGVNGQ
# TEST PROTOCOL: IC50 assay, nitrocefin hydrolysis, KPC-2 (SBL)
# Format: biochemical
# CONDITION NOTES: nitrocefin 50 μM, 5 min pre-incubation at 25° C.; 10 mM phosphate-buffered saline, pH 7.4

Previously resolved entries follow.
# COMPOUND, OBS VALUE
rows = [
    ("Cc1ccc(S(=O)(=O)NCc2cn(CB(O)O)nn2)cc1 [Cmp 1a]", "1.3 µM"),
    ("O=C(NCc1cn(CB(O)O)nn1)Nc1ccccc1 [Cmp 1e]", "5.2 µM"),
    ("O=C(Cc1ccccc1)NCc1cn(CB(O)O)nn1 [Cmp 1d]", "12 µM"),
]

Read the next record carefully.
Provide one value: measured IC50 of O=C(NCc1cn(CB(O)O)nn1)c1ccccc1 [Cmp 1c]
10.8 µM

---

Reported melting point values for the following molecules.

Previously resolved entries follow.
# ITEM SMILES, ASSAY READOUT, OBS VALUE
measured = [
    ("O=C(O)c1cccc(C[C@@H](B(O)O)n2cc(-c3ccsc3)nn2)c1", "melting point", "185 to 187 °C (dec.)"),
    ("OB(O)[C@H](Cc1ccccc1)n1cc(COc2ccccc2)nn1", "melting point", "113 to 115 °C (dec.)"),
    ("O=C(O)c1cn([C@@H](Cc2ccccc2)B(O)O)nn1", "melting point", "120 to 122 °C (dec.)"),
    ("OB(O)Cn1cc(COc2ccccc2)nn1", "melting point", "128 to 131 °C (dec.)"),
    ("OB(O)Cn1cc(-c2ccccc2)nn1", "melting point", "122 to 124 °C (dec.)"),
]

Provide one value: measured melting point of O=C(O)c1cccc(C[C@@H](B(O)O)n2cc(-c3ccccc3)nn2)c1
88 to 90 °C (dec.)

Provide one value: measured melting point of OB(O)[C@H](Cc1ccccc1)n1cc(-c2ccsc2)nn1
141 to 143 °C (dec.)

Provide one value: measured melting point of CCOC(=O)c1cn([C@@H](Cc2cccc(C(=O)O)c2)B(O)O)nn1
108 to 110 °C (dec.)

Provide one value: measured melting point of CCOC(=O)c1cn(CB(O)O)nn1
123 to 125 °C (dec.)

Provide one value: measured melting point of OB(O)[C@H](Cc1ccccc1)n1cc(-c2ccccc2)nn1
151 to 153 °C (dec.)

Provide one value: measured melting point of OB(O)Cn1cc(-c2ccsc2)nn1
170 to 172 °C (dec.)

---

# TESTED ON: NDM-1 (Klebsiella pneumoniae)
# Sequence (C7C422 29-270, looked up): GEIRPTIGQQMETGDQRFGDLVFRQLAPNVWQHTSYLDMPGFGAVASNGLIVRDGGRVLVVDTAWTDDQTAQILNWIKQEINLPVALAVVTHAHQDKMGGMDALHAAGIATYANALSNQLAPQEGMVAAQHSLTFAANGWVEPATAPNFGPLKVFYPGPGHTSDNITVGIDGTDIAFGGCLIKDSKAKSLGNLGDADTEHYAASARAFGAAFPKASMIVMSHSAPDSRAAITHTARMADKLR
# TEST PROTOCOL: IC50 assay, nitrocefin hydrolysis, NDM-1 (MBL)
# Format: biochemical
# CONDITION NOTES: nitrocefin 50 μM, 5 min pre-incubation at 25° C.; 10 mM HEPES pH 7.5, 200 mM NaCl, 50 uM Zn2SO4, 50 ug/ml BSA
Reported IC50 values for the following molecules.

Previously resolved entries follow.
# MOLECULE, OBS VALUE
data = [
    ("O=C(NCc1cn(CB(O)O)nn1)c1ccccc1 [Cmp 1c]", "> 100 µM"),
    ("O=C(NCc1cn(CB(O)O)nn1)Nc1ccccc1 [Cmp 1e]", "> 100 µM"),
]

Provide one value: measured IC50 of Cc1ccc(S(=O)(=O)NCc2cn(CB(O)O)nn2)cc1 [Cmp 1a]
> 100 µM

Provide one value: measured IC50 of O=C(Cc1ccccc1)NCc1cn(CB(O)O)nn1 [Cmp 1d]
> 100 µM
